- Experiment Summary: RSV NHBE CC50 384 V2 (per Ex. U)
- Type: cell-based
- Measurement Context: human
Below, each entry is listed alongside its reported CC50 at 3 days.
Provide only the numeric value, understood in nM.

Worked examples, 2 molecules total:
1. CCCCCCCCCCCCCCCC[C@@H](COP(=O)(O)OC[C@@]1(C#N)O[C@@H](c2ccc3c(N)ncnn23)[C@H](O)[C@@H]1O)OCc1cc(F)cc(C#N)c1 [Compound 79]: 2100
2. CCCCCCCCCCCCCCCOC[C@H](COP(=O)(O)OC[C@@]1(C#N)O[C@@H](c2ccc3c(N)ncnn23)[C@H](O)[C@@H]1O)OCc1cc(F)cc(C#N)c1 [Compound 99]: 1140

In: Give CC50 at 3 days for the following molecule: CCCCCCCCCCCCCCCCCCOC[C@](C)(COP(=O)(O)OC[C@@]1(C#N)O[C@@H](c2ccc3c(N)ncnn23)[C@H](O)[C@@H]1O)OCc1cc(F)cc(C#N)c1 [Compound 94]
Out: 16000

In: Give CC50 at 3 days for the following molecule: CCCCCCCCCCCCCCCCCCOC[C@H](COP(=O)(O)OC[C@@]1(C#N)O[C@@H](c2ccc3c(N)ncnn23)[C@H](O)[C@@H]1O)OCc1cccc(C#N)n1 [Compound 68]
Out: 2060

In: Give CC50 at 3 days for the following molecule: CCCCCCCCCCCCCCCCC[C@H](COP(=O)(O)OC[C@@]1(C#N)O[C@@H](c2ccc3c(N)ncnn23)[C@H](O)[C@@H]1O)OCc1cc(F)cc(C#N)c1 [Compound 36]
Out: 2740

----------
- System: HCV Replicon 2A
- Experiment Summary: HCV Replicon 2A EC50 (Example Q)
- Format: cell-based
- Measurement Context: Hepatitis C virus, 72 h; HCV replicon cells, 3 days, Dual-Glo luciferase; read-out: HCV Replicon 2A EC50 (nM) (per Ex. Q)
Measurement Kind: EC50
Give your result as the value with the unit written after it.

Worked examples, 4 compounds total:
1. CCCCCCCCCCCCCCC[C@H](COP(=O)(O)OC[C@@]1(C#N)O[C@@H](c2ccc3c(N)ncnn23)[C@H](O)[C@@H]1O)OCc1cc(F)cc(C#N)c1 [Compound 80]: 21200 nM
2. CCCCCCCCCCCCCCCCCCCC[C@H](COP(=O)(O)OC[C@@]1(C#N)O[C@@H](c2ccc3c(N)ncnn23)[C@H](O)[C@@H]1O)Oc1cccc(C#N)c1 [Compound 51]: 19200 nM
3. CCCCCCCCCCCCCCCC[C@@H](COP(=O)(O)OC[C@@]1(C#N)O[C@@H](c2ccc3c(N)ncnn23)[C@H](O)[C@@H]1O)OCc1cc(F)cc(C#N)c1 [Compound 79]: 20000 nM
4. CCCCCCCCCCCCCCCCCC[C@H](COP(=O)(O)OC[C@@]1(C#N)O[C@@H](c2ccc3c(N)ncnn23)[C@H](O)[C@@H]1O)OCc1cc(Cl)cc(C#N)c1 [Compound 81]: 15900 nM

Would you kindly look at the next entry?
In: Give EC50 for the following compound: CCCCCCCCCCCCCCCCCCC[C@H](COP(=O)(O)OC[C@@]1(C#N)O[C@@H](c2ccc3c(N)ncnn23)[C@H](O)[C@@H]1O)OCc1cc(Cl)cc(C#N)c1 [Compound 82]
Out: 19200 nM
